test: stability in aqueous solution; type: physicochemical; details: 1 mg./ml. in water (pH 7.0), 0° C.
reported_endpoint: half-life (days)
Reply numerically in days, unit not repeated.

Value of half-life reported for the compound C[C@@H](O)[C@H]1C(=O)N2C(C(=O)O)=C(SCCN)C[C@H]12 [Thienamycin, thienamycin] is 20

====

assay: stability in aqueous solution; assay type: physicochemical; details: pH 4.0, 30 mM. phosphate buffer, room temperature
reported_endpoint: half-life (h)
Reply numerically in h, unit not repeated.

Value of half-life reported for the compound `C[C@@H](O)[C@H]1C(=O)N2C(C(=O)O)=C(SCCN)C[C@H]12` is 5.77

====

assay: stability in aqueous solution; format: physicochemical; conditions: pH 3.0, 30 mM. phosphate buffer, room temperature
reported_endpoint: half-life (min)
Reply numerically in min, unit not repeated.

Value of half-life reported for the compound C[C@@H](O)[C@H]1C(=O)N2C(C(=O)O)=C(SCCN)C[C@H]12 [Thienamycin, thienamycin] is 30

====

experiment: stability in aqueous solution; format: physicochemical; settings: aqueous solution; pH 8.2, 30° C.
reported_endpoint: half-life (min)
Reply numerically in min, unit not repeated.

Value of half-life reported for the compound C[C@@H](O)[C@H]1C(=O)N2C(C(=O)O)=C(SCCN)C[C@H]12 [Thienamycin, thienamycin] is 10

====

test: stability in aqueous solution; assay type: physicochemical; settings: 12 mg./ml. in 10 mM. phosphate buffer, 10° C.
reported_endpoint: half-life (h)
Reply numerically in h, unit not repeated.

Value of half-life reported for the compound `C[C@@H](O)[C@H]1C(=O)N2C(C(=O)O)=C(SCCN)C[C@H]12` is 72

====

experiment: pKa from pH induced shift in ultraviolet absorption spectrum; format: physicochemical; settings: acidic function; 30 mM. phosphate buffer; read-out: pKa1
reported_endpoint: pKa

Value of pKa reported for the compound C[C@@H](O)[C@H]1C(=O)N2C(C(=O)O)=C(SCCN)C[C@H]12 [Thienamycin, thienamycin] is 3.08
